# Tested on: NCI-H226
# test_method_notes: Growth inhibition of human NCI-H226 cells at 10 uM after 48 hrs by sulforhodamine B assay
# Type: functional
# experimental_context: NCI-H226, 48 h, values are per cent of control
Assign growth, % of control at 10 µM to each entry below.
Report as a plain number; the unit % is understood.

Please state recorded growth, % of control at 10 µM (tested on NCI-H226) of COc1ccc(/C(C#N)=C/c2ccc3c(c2)OCCO3)cc1OC
71.1

Entry to check: COc1cc(/C=C(\C#N)c2ccc3c(c2)OCO3)cc(OC)c1OC
101

Entry to check: COc1ccc(/C=C(\C#N)c2ccc3c(c2)OCO3)cc1OC
114

Entry to check: COc1ccc(/C=C(\C#N)c2ccc3c(c2)OCO3)c(OC)c1
73.8

Entry to check: N#C/C(=C\c1cccc2ccccc12)c1ccc2c(c1)OCO2
83

Entry to check: N#C/C(=C\c1ccc2ccccc2n1)c1ccc2c(c1)OCO2
70.8

Entry to check: N#C/C(=C\c1ccsc1)c1ccc2c(c1)OCO2
101

Entry to check: COc1ccc(/C=C(\C#N)c2ccc3c(c2)OCO3)cc1
71.8

Entry to check: N#C/C(=C\c1cc(F)cc(F)c1)c1ccc2c(c1)OCO2
102

Entry to check: COc1ccc(/C(C#N)=C/c2ccc3c(c2)OCO3)cc1
86.6

Entry to check: N#C/C(=C\c1cc2ccccc2s1)c1ccc2c(c1)OCO2
28.7

Entry to check: N#C/C(=C\c1ccc(Cl)c(Cl)c1)c1ccc2c(c1)OCO2
98.9

Entry to check: N#C/C(=C\c1cccnc1Cl)c1ccc2c(c1)OCO2
98.9

Entry to check: N#C/C(=C\c1cc(Br)cc(Br)c1)c1ccc2c(c1)OCO2
115

Entry to check: COc1cc(/C=C(\C#N)c2ccc3c(c2)OCO3)cc(OC)c1
99.8

Entry to check: N#C/C(=C\c1ccc2c(c1)OCO2)c1ccc2c(c1)OCO2
94.9

Entry to check: COc1ccc(/C(C#N)=C/c2ccc3c(c2)OCCO3)cc1
81.2

Entry to check: COc1cc(/C(C#N)=C/c2ccc3c(c2)OCCO3)cc(OC)c1OC
43.9

Entry to check: COc1ccc(/C=C(\C#N)c2ccc3c(c2)OCO3)cn1
93.3

Entry to check: COc1ccc(/C=C(\C#N)c2ccc3c(c2)OCO3)c(Cl)c1OC
85

Entry to check: N#C/C(=C\c1c(Cl)cccc1Cl)c1ccc2c(c1)OCO2
111

Entry to check: COc1ccc(/C=C(\C#N)c2ccc3c(c2)OCO3)c2ccccc12
38.5

Entry to check: N#C/C(=C\c1ccc(Cl)cc1Cl)c1ccc2c(c1)OCO2
113

---

Assign growth, % of control at 10 µM to each entry below.
# test_method_notes: Growth inhibition of human SKOV3 cells at 10 uM after 48 hrs by sulforhodamine B assay
# Assay type: functional
# experimental_context: SK-OV-3, 48 h, values are per cent of control
Report as a plain number; the unit % is understood.

Please give the measured growth, % of control at 10 µM for this compound: COc1ccc(/C(C#N)=C/c2ccc3c(c2)OCCO3)cc1
81

Entry to check: N#C/C(=C\c1cccc2ccccc12)c1ccc2c(c1)OCO2
61.9

Entry to check: N#C/C(=C\c1ccc(Cl)c(Cl)c1)c1ccc2c(c1)OCO2
70.6

Entry to check: N#C/C(=C\c1cc(F)cc(F)c1)c1ccc2c(c1)OCO2
102

Entry to check: N#C/C(=C\c1cc2ccccc2s1)c1ccc2c(c1)OCO2
20.7

Entry to check: N#C/C(=C\c1ccc2c(c1)OCO2)c1ccc2c(c1)OCO2
85.5
